Catalogue of glycan array binding signal (z-score) values
EXPERIMENTAL_TARGET: Neu5Ac(a2-3)Gal(b1-3)[Neu5Ac(a2-3)Gal(b1-4)]GlcNAc
ASSAY_METHOD_TEXT: glycan array binding signal (z-score within array); higher = stronger binding
STATED_CONDITIONS: glycan notation: IUPAC condensed, linker removed
The full list was thinned out, with the strongest signals kept by preference.
// no unit string in output, number only

Let me know recorded glycan array binding signal (z-score) for PNA (Arachis hypogaea), P02872 (protein) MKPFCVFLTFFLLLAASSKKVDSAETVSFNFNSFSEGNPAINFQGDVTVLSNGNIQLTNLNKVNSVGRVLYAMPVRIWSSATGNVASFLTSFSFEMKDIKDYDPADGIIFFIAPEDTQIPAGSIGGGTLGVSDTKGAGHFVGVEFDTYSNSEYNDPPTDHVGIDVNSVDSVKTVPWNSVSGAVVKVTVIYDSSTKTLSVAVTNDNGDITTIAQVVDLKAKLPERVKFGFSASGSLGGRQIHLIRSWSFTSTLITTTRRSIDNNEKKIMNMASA , thanks.
-0.21

Provide one value: measured glycan array binding signal (z-score) of AMA (Arum maculatun) (protein) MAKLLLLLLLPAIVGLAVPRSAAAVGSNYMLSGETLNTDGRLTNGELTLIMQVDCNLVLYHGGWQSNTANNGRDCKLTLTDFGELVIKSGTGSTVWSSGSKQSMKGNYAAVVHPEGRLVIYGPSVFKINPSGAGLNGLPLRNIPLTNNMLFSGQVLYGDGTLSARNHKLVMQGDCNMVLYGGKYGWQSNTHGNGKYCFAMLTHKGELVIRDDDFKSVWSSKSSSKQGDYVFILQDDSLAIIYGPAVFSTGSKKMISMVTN
0.441
